Value source: the supplement of paper PMC12764529

- protocol-summary: folding stability dG unfold from trypsin proteolysis; higher = more stable
assay-endpoint: folding stability dG unfold (kcal/mol)
Quick reminder: number only, in kcal/mol, skip the unit.

Prompt line: Dear colleague, I am looking for the recorded folding stability dG unfold of the following sequence: SAGGSAGGSPYTIMYPIPGDTVEEVKDIAKEIMEHFPNFKITVSVEPPKDGQYWVTIELEMPDSAGGSAGGS [r12_425_TrROS]
Response line: 1.87

***
Prompt line: Which folding stability dG unfold value belongs to SAGPPNMEPVETHTFPFPGKKIKIKVYRNPDGHVKIKLEDPGKKIEQSAPVPPGEPVEIPIRLPNGKPISAG [r5_878_TrROS] ?
Response line: -0.904

Prompt line: Ok, now SAPIDIDLERDPEPGRLKATVEFPWPNGWMHRMTFDLQWPRIKVEHYPFKDGEPEPQEIEIPIPANAKVSAG [r14_64_TrROS]
Response line: 0.0882

Prompt line: Entry to check: SAGGSAGGGPPNAPLKIYTDDGSVNLLNLDGQPLLVTVHPDATAEITLPDGTKITVPIPPGANLSAGGSAGG [r6_105_TrMRF]
Response line: 1.26

Prompt line: Proceed to SAGGPITITYDEETGVLTITITVPSLEEAEALIKALLPPGAEATRITVERNEDGSVTVTVEIRLPKGLSAGG [r13_338_TrROS_Hall]
Response line: 2.99

Prompt line: What about this sequence? SAGGSISVEELKKLPPDSTLTYTEGDKLYEIKVYKNPEGALSIEITEIDPNTGSPVKTEIVNLEELLSAGGS [r16_763_JUSTAS]
Response line: 1.63

Prompt line: Request: SAGGSAGGSAGSPDRPRRVEPVPVVTYKDPDLGKEFTSPEEIEKTKEELEKKGLSVEVSASAGGSAGGSAGG [r17_289_JUSTAS]
Response line: -0.209

====

- protocol-summary: folding stability dG unfold (combined trypsin and chymotrypsin); higher = more stable
We use 1 kcal/mol as the dividing line for folding stability dG unfold: on or above the line is 1 (yes), below is 0 (no).

Prompt line: Say whether SAGGSAGGSAGGSMYVIVTVPPGERLTFPLNPEIDVPEEEIKEKLKKELPVESIEILLPSAGGSAGGSAGGS [r4_116_JUSTAS] shows folding stability dG unfold of 1 kcal/mol or more.
Response line: 0 (no)

Prompt line: Now this one: SAGGSAGGSASTSEKIDYPNPPITVTRLPNGVVLVTYSDSNTTTVIPESVLATLPPTVPLFSAGGSAGGSAG [r3_256_JUSTAS]
Response line: 1 (yes)

Prompt line: Request: SAGGSAGGSAGGALVVEVEVEGERRTLVVPVPDEIPPGAEEVAKKLGLKDAKVKIAPLDLSAGGSAGGSAGG [r11_219_TrMRF]
Response line: 0 (no)

Prompt line: Request: SAGGSAGGSAGGSMKEVTITLTDPETGKVSTLVLKLSPEEIEKAAEELAKSSGKKVTIRSAGGSAGGSAGGS [r4_301_JUSTAS]
Response line: 1 (yes)

Prompt line: Same question, SAGGSAGGSAGPMEVERETIMIPIDPDKGYYIMIDVWRYKNPGGPPFPAPSISIMDLDDLSAGGSAGGSAGG [r11_51_TrROS] this time
Response line: 1 (yes)

Prompt line: Let us now turn to SPSADAKVRVEPLPGPGYLATLEDGSLVLVHPDGTVIEVTETKVRIRVFTPDKPLLELEIEIPPPAPDEPSA [r9_901_TrMRF]
Response line: 1 (yes)

Prompt line: Next up: SAGGNWTIEVEIEENPDGPYRITIRYRAPNGEEHKVTMWFDPDNGTFPIKLPGPLPPDQIEDIEIWPSAGGS [r16_95_TrROS]
Response line: 1 (yes)

Prompt line: Also, SAGGMKKVKALVVANPFDPNKYKVFVKAEEEEKVFEFDPNNPEKIIEELEKLLPEDYKLDEIVFESGASAGG [r13_519_TrMRF] please.
Response line: 1 (yes)

Prompt line: Consider next the sequence SAGGKKKKVKVKVVKVEKLENGTYKVVLEVEVDGKKITLVKEFKTKEDLEKKPKEIEITVEELKKLLKSAGG [r13_540_TrROS_Hall] in the same way.
Response line: 1 (yes)

Prompt line: Would you kindly repeat that for SAGGSAGGSAGGKIKVVFELPDAPLFLVAEADSPEELLERAVKLEEELGVPLKVVKVEGSAGGSAGGSAGGS [r10_1087_TrMRF] ?
Response line: 0 (no)

***
Prompt line: folding stability dG unfold >= 1 kcal/mol for SSSLDYVFKDIDPSSPNKLTLSEIKPVPESDKVVNKIVFPTKTILVTFDSAEDAEAHIGLLLKLFGSPPESA [r9_258_TrMRF] ?
Response line: 0 (no)

Prompt line: Same question for SAGPKVVKIEFLEDNTAKITVEVGSKPVEVEVPVGSVFLIPGGEKIEVIEPGKAKVSPLPEVDVDPEKSAGG [r19_17_TrMRF] please.
Response line: 0 (no)

Prompt line: Next entry: SAGGSAGGSAGKSPSESEVVITPETGVVEENGVKIKVTLTITTYSPSSTVTSTTKDPKLLSAGGSAGGSAGG [r11_551_JUSTAS]
Response line: 0 (no)

Prompt line: Item: SAGGRKAKVTVTLPDGTVVELELEFKTEEEFEKAVKEKLEELFGKSIEEVPFVEKKVTVYDPEKGSKSESAG [r5_482_JUSTAS]
Response line: 1 (yes)

====

- protocol-summary: folding stability dG unfold from chymotrypsin proteolysis; higher = more stable
Please enter T where folding stability dG unfold is greater than or equal to 0.8 kcal/mol, and F where it is lower.

Prompt line: Check this sequence for folding stability dG unfold at or above 0.8 kcal/mol: SAGGSAPWRPITITIPGSWEEIKELAKKFVNDGNIRDVEVEPVPDPGYYKVTVWVRDPNGNWYLVFSAGGSA [r15_177_TrROS]
Response line: T

---
Prompt line: Could you verify whether the entry SAGGSMSTSTLVRREIASVDPETGLRVVRVEVEEVDYGFDPKTGTVLGVSPVSPVSESVLLLPADAPPESAG [r5_903_JUSTAS] shows folding stability dG unfold of no less than 0.8 kcal/mol?
Response line: F

Prompt line: What do you get for SAGGSAGGSKEIVIKVNVSEEDLKEKAEELLKKLEELLPPGAKIKKIEIEYDEETGELVIKIESAGGSAGGS [r12_308_TrROS_Hall] ?
Response line: T

Prompt line: Next record, please: SAGGSAGGSAMKVRVKIKITRGSKEYEEEFILPEEEIEKLKEEIPEDYEVEIVDKEPLVLKSAGGSAGGSAG [r3_195_JUSTAS]
Response line: F

Prompt line: Same for SGEFKPIATIDAKDGKPEAIIDSVKELLPDSGPVLVVLDLPDGPPKVNVIDPSTGKVREFVPGGNITIVPSA [r9_853_TrMRF]
Response line: T

Prompt line: Similarly, SAGGSAMKVDPSTKVVTVTDPKTGKEYRVNLPDVPPEKGVEVKVDNGKVTVKTEEGVRVIPYSELKSAGGSA [r15_864_JUSTAS] ?
Response line: F

Prompt line: Same thing, different sequence: SMEIKIEITYDKDTNYLVIKVTIKLKTKTVDKKTKKVTEKEEEITLTLVIKLKPLKPGQKLKLEIKLFPESA [r9_1058_TrROS_Hall]
Response line: T

====

- protocol-summary: folding stability dG unfold from trypsin proteolysis; higher = more stable
folding stability dG unfold values for the sequences below.
Your answer should be a number followed by the unit of measure.

Below, each entry is followed by its recorded folding stability dG unfold result.
Prompt line: Query: folding stability dG unfold; subject: SPPGWKVIPITLKFRAPIKSVEEAKSQVREIAREIANRHGFPIQVNVTVEYDPEDGWVKVEVPISIWVPKSA [r9_741_TrROS]
Response line: 2.75 kcal/mol

Prompt line: Now consider SAGGSAGGSAGSGTMFDFGSASVETLEEDPNGRVLVKVTLPDSEYLLEIVKGELVKIEPRSAGGSAGGSAGG [r17_396_JUSTAS] .
Response line: -0.274 kcal/mol

Prompt line: Same for SASKRFVFPVLGDEQTITVDVPEDYYVRITVFFPDGSEPILIPPNEKVTITVPRKDAFVVIEVFPKNEESAG [r14_882_TrMRF]
Response line: 2.59 kcal/mol

***
Prompt line: Could you tell me which folding stability dG unfold is on file for SAGGSAGGSAGGKNKYYVRVKIKNPNGRTRKINFPFDDPDQIKEQAQKEGWKIDEVEPVSAGGSAGGSAGGS [r10_882_TrROS] ?
Response line: -0.319 kcal/mol

Prompt line: Now the same for SAGGSAGGSADPNAFPITIFTFKMEIEDVEKTPNGQPELRYKMEVVEIRPIWLPPDDLEDLSAGGSAGGSAG [r3_121_TrROS]
Response line: 3 kcal/mol

====

- protocol-summary: folding stability dG unfold from trypsin proteolysis; higher = more stable
Parameter: folding stability dG unfold. Scope: all listed entries.
Give just the numeric value; kcal/mol need not be written.

These solved cases illustrate the format of a correct answer.
Prompt line: Can you share its folding stability dG unfold? I mean this sequence: SAGGSAMKVRLEVEEEDGKLRVRLEVEVGPPVVRVEVEAEVEEVDGELVLKVTVKVELSPEALEALSAGGSA [r15_725_TrROS_Hall]
Response line: 3.47

Prompt line: Thanks! And SAGGSAGGSALEIPFEVVDEKDFLLEGDYIVRVAELKNGLRALAIYDPKTGKVLVIVSPGGSAGGSAGGSAG [r3_438_TrMRF] ?
Response line: 1.92

Prompt line: Here is the next sequence: SAGGSAGGSAGGMEYSISNVTTETFPEGNKTVTVETYTFDDGGTITVTKENGKVLEVNPKSAGGSAGGSAGG [r7_552_JUSTAS]
Response line: -1.57

Prompt line: Another: SAGGSMETRETLEERTLPNGEKVLTTTTTYPDGTVTTRTTVIHGGTSTVTTTTTPAAPVPGPAPARASAGGS [r16_523_JUSTAS]
Response line: 0.422

Next:
Prompt line: Report folding stability dG unfold for SAGGSAGGSLTIRFPEELSPEEAVELAEGLVRELFPEDVPVTVTVVFYDPETGEELTIPAELASAGGSAGGS [r12_1051_TrMRF] please.
Response line: 1.49
